Molecular target: IRAP (Homo sapiens, UniProt Q9UIQ6)
Construct: The screen was performed with the soluble truncated IRAP enzyme; made in house
Sequence (Q9UIQ6 155-1025 limits assumed): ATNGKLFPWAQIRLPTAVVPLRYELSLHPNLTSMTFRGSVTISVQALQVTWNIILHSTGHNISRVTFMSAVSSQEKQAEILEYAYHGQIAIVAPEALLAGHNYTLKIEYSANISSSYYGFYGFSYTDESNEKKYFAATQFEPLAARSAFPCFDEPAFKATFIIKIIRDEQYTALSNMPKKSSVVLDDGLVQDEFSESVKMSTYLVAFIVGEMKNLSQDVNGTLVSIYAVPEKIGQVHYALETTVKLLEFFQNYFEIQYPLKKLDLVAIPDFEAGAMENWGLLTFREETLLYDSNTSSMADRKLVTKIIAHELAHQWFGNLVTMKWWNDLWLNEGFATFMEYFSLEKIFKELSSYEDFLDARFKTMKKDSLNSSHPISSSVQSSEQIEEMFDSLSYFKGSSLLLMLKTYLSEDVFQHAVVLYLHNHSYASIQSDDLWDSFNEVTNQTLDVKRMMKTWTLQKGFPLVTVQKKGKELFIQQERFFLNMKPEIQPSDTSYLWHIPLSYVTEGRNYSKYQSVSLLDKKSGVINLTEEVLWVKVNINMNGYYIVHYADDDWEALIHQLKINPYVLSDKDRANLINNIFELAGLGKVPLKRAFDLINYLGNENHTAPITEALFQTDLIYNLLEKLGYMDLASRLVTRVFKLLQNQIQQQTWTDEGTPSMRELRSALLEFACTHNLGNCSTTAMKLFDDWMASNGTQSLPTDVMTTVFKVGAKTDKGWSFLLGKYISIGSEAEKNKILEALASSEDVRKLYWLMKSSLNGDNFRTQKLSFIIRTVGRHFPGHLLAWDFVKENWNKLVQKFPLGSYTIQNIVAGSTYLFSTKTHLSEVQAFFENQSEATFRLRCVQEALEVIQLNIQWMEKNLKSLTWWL
Experiment: Orthogonal absorbance IRAP assay (L-Leucine para-nitroanilide cleavage)
Type: biochemical
Conditions: 1 mM L-Leucine p-Nitroanilide, 120 min RT
test_readout: Absorbance pIC50
Reply with the value as a number alone.

Query :: Which Absorbance pIC50 is listed for COc1cc(CN2C(Cc3ccc(S(C)(=O)=O)cc3)CCC2c2cccnc2)cc(OC)c1 (stereo not shown) [QHL35] ?
Result :: 4.85

Query :: Which Absorbance pIC50 is listed for CCn1c(=O)n(CC(=O)N(C)CCc2ccc(O)c3[nH]c(=O)sc23)c2ccccc21 [QHL45] ?
Result :: 6.09

Recorded values, source paper PMC11012289.
